Data credit: ChEMBL document CHEMBL3991601

- MEASURED ON: MAP kinase-activated protein kinase 2 (Homo sapiens)
- Sequence (P49137 whole entry): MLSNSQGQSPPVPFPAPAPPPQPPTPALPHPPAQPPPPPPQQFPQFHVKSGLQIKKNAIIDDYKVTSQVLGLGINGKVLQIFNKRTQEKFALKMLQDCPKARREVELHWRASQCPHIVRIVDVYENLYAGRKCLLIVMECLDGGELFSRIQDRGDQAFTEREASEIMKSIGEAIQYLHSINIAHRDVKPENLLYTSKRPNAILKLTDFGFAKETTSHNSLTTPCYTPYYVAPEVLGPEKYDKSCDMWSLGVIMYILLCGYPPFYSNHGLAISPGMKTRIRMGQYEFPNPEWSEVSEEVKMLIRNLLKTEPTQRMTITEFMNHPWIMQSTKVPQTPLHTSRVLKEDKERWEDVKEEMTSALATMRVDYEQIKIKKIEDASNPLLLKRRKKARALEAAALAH
The source made the active and inactive calls.
Choose one outcome from this list and give only that: active, inactive

Task: Returns: the outcome recorded for COc1cc2ncnc(Nc3ccc(O)cc3)c2cc1OC [WHI-P131] in this assay.
Result: inactive

Task: Returns: the outcome recorded for C[C@@H]1COC(Nc2ccc3ncnc(Nc4ccc(OCc5nccs5)c(Cl)c4)c3c2)=N1 [VARLITINIB] in this assay.
Result: inactive

Task: Returns: the outcome recorded for CN1CCN(c2nc(C3=C(c4c[nH]c5ccccc45)C(=O)NC3=O)c3ccccc3n2)CC1 [SOTRASTAURIN] in this assay.
Result: inactive

Task: Returns: the outcome recorded for Cc1cc(Nc2nc(N[C@@H](C)c3ncc(F)cn3)ncc2Cl)n[nH]1 [AZD-1480] in this assay.
Result: inactive

Task: Returns: the outcome recorded for O=C(Nc1ccc(OC(F)(F)F)cc1)c1sccc1NCc1ccnc2ccccc12 [OSI-930] in this assay.
Result: inactive

Task: Returns: the outcome recorded for COc1ccc2c(OCc3nnc4ccc(-c5ccccc5)nn34)ccnc2c1 [AMG-208] in this assay.
Result: inactive

Task: Returns: the outcome recorded for C=CC(=O)Nc1cccc(Nc2nc(Nc3ccc(N4CCN(C(C)=O)CC4)cc3OC)ncc2C(F)(F)F)c1 [ROCILETINIB] in this assay.
Result: inactive

Task: Returns: the outcome recorded for Cn1cc(-c2[nH]c3cc(NC(=O)[C@H](N)C4CCCCC4)cc4c3c2C=NNC4=O)cn1 in this assay.
Result: inactive

Task: Returns: the outcome recorded for COc1cc(Nc2ncc(F)c(Nc3ccc4c(n3)N(COP(=O)(O)O)C(=O)C(C)(C)O4)n2)cc(OC)c1OC [FOSTAMATINIB] in this assay.
Result: inactive

Task: Returns: the outcome recorded for CC(C)(O)CC(=O)NCCn1ccc2ncnc(Nc3ccc(Oc4cccc(C(F)(F)F)c4)c(Cl)c3)c21 [TAK-285] in this assay.
Result: inactive

Task: Returns: the outcome recorded for COc1cc2nccc(Oc3ccc(NC(=O)C4(C(=O)Nc5ccc(F)cc5)CC4)cc3)c2cc1OC [CABOZANTINIB] in this assay.
Result: inactive

Task: Returns: the outcome recorded for Cn1c(=O)c(F)c(Nc2ccc(I)cc2F)c2c(=O)n(C[C@@H](O)CO)cnc21 [TAK-733] in this assay.
Result: inactive

Task: Returns: the outcome recorded for c1cc(OCCN2CCCCC2)cc(-c2n[nH]c3ccc(-c4nc[nH]n4)cc23)c1 [CC-401] in this assay.
Result: inactive

Task: Returns: the outcome recorded for COc1cccc2cc(-c3nc([C@H]4CC[C@H](C(=O)O)CC4)n4ncnc(N)c34)[nH]c12 [OSI-027] in this assay.
Result: inactive

Task: Returns: the outcome recorded for CNC(=O)c1cc(COc2nnc(Nc3ccc(Cl)cc3)c3ccoc23)ccn1 [TELATINIB] in this assay.
Result: inactive

Task: Returns: the outcome recorded for FC(F)(F)c1ccc(CNc2ccc(Cc3c[nH]c4ncc(Cl)cc34)cn2)cn1 [PEXIDARTINIB] in this assay.
Result: inactive

Task: Returns: the outcome recorded for CC[C@@](C)(Nc1ccnc(-c2c[nH]c3ncccc23)n1)C(=O)NCC(F)(F)F [DECERNOTINIB] in this assay.
Result: inactive

Task: Returns: the outcome recorded for O=C(NC[C@H](O)CO)c1ccncc1Nc1ccc(I)cc1F [PIMASERTIB] in this assay.
Result: inactive

Task: Returns: the outcome recorded for C#Cc1cccc(Nc2ncnc3cc4c(cc23)OCCOCCOCCO4)c1 [ICOTINIB] in this assay.
Result: inactive

Task: Returns: the outcome recorded for N#CCNC(=O)c1ccc(-c2ccnc(Nc3ccc(N4CCOCC4)cc3)n2)cc1 [MOMELOTINIB] in this assay.
Result: inactive

Task: Returns: the outcome recorded for NC(=O)c1ccc(N(C(N)=O)c2c(F)cccc2F)nc1-c1ccc(F)cc1F [VX-702] in this assay.
Result: active

Task: Returns: the outcome recorded for C=CCn1c(=O)c2cnc(Nc3ccc(N4CCN(C)CC4)cc3)nc2n1-c1cccc(C(C)(C)O)n1 [ADAVOSERTIB] in this assay.
Result: inactive

Task: Returns: the outcome recorded for Cc1cc(-c2cc(OC(=O)c3ccccc3)ccc2Cl)cc2nnc(Nc3ccc(OCCN4CCCC4)cc3)nc12 [TG100-801] in this assay.
Result: inactive

Task: Returns: the outcome recorded for COc1cc2ncnc3c2cc1OCCCCCN(C)Cc1ccc(Br)cc1N3 [JNJ-26483327] in this assay.
Result: inactive

Task: Returns: the outcome recorded for Cc1c(NC(=O)OC[C@@H]2COCCN2)cn2ncnc(Nc3ccc4c(cnn4Cc4cccc(F)c4)c3)c12 [AC-480] in this assay.
Result: inactive

Task: Returns: the outcome recorded for COc1cc(F)c(F)c(Nc2ccc(I)cc2F)c1NS(=O)(=O)C1(C[C@H](O)CO)CC1 [REFAMETINIB] in this assay.
Result: inactive

Task: Returns: the outcome recorded for CCc1cc2c(cc1N1CCC(N3CCOCC3)CC1)C(C)(C)c1[nH]c3cc(C#N)ccc3c1C2=O [ALECTINIB] in this assay.
Result: inactive

Task: Returns: the outcome recorded for O=C(NOC[C@H](O)CO)c1ccc(F)c(F)c1Nc1ccc(I)cc1F [MIRDAMETINIB] in this assay.
Result: inactive

Task: Returns: the outcome recorded for Cc1cc(C(=O)Nc2cc(Oc3ccc4nc(NC(=O)C5CC5)cn4n3)ccc2C)n(C)n1 [TAK-593] in this assay.
Result: inactive

Task: Returns: the outcome recorded for COc1cc2ncnc(Nc3ccc(F)c(Cl)c3)c2cc1NC(=O)/C=C/CN1CCCCC1 [DACOMITINIB ANHYDROUS] in this assay.
Result: inactive

Task: Returns: the outcome recorded for CC(C)CC(=O)Nc1[nH]nc2c1CN(C(=O)C1CCN(C)CC1)C2(C)C [PHA-793887] in this assay.
Result: inactive

Task: Returns: the outcome recorded for NC[C@@](O)(c1ccc(Cl)cc1)c1ccc(-c2cn[nH]c2)cc1 [AT-13148] in this assay.
Result: inactive

Task: Returns: the outcome recorded for O[C@H]1CC[C@H](Nc2ncc3nc(Nc4c(F)cc(F)cc4F)n([C@H]4CCOC4)c3n2)CC1 [TANZISERTIB] in this assay.
Result: active
